Data provenance: ChEMBL document CHEMBL3745692

Give measured Activity for each item. Keep answers brief.
- Tested on: K562
- Measurement Notes: Cell cycle arrest in human K562 cells assessed as accumulation at G1 phase at 3 uM for 24 hrs by propidium iodide staining based flow cytometry (reference value: 39.27%)
- Type: functional
Remember to put the unit after the number in your answer.

Can you share its Activity? I mean this compound: "COc1cc(C(=O)c2cc3ccc(NC(=O)CI)cc3o2)cc(OC)c1OC" 37.06%

Please report the recorded Activity for "COc1cc(C(=O)c2sc3cc(C)ccc3c2NC(=O)CI)cc(OC)c1OC" . 41.47%

Given the compound "COc1cc(C(=O)c2[nH]c3ccccc3c2NC(=O)CI)cc(OC)c1OC" , what is its reported Activity? 31.82%

What value of measured Activity is listed for "COc1cc(C(=O)c2oc3ccccc3c2NC(=O)CI)cc(OC)c1OC" ? 75.37%

* * *

- Tested on: K562
- Measurement Notes: Induction of apoptosis in human K562 cells after 48 hrs by annexinV and propidium iodide staining based flow cytometry
- Assay type: functional, cell-based
- Particulars: K562, 48 h
Yes if AC50 is below 7 µM. No if not; exact matches included in No.

A record lists "COc1cc(C(=O)c2c(NC(=O)CI)c3cccc(OC)c3n2C)cc(OC)c1OC" . Is its AC50 below 7 µM? Yes

I wonder whether "COc1cc2oc(C(=O)c3cc(OC)c(OC)c(OC)c3)c(C)c2cc1NC(=O)CI" has AC50 below 7 µM. Can you tell? Yes

Is 7 µM strictly greater than the compound's reported AC50? compound: "COc1cc(C(=O)c2cc3cc(NC(=O)CI)cc(OC)c3s2)cc(OC)c1OC" Yes

AC50 strictly < 7 µM for this compound? "COc1cc(C(=O)c2sc3c(C)cccc3c2NC(=O)CI)cc(OC)c1OC" Yes

Lab log: compare recorded AC50 with 7 µM; is it strictly lower for "Cc1ccc(NC(=O)c2ccc(CN3CCN(C)CC3)cc2)cc1Nc1nccc(-c2cccnc2)n1" ? Yes

# strict comparison: is reported AC50 < 7 µM? input = "COc1cc(C(=O)c2sc3ccccc3c2NC(=O)CI)cc(OC)c1OC" No

Please indicate whether the reported AC50 of "COc1cc(C(=O)c2cc3ccc(NC(=O)CI)cc3o2)cc(OC)c1OC" is strictly below 7 µM. Yes

Record "COc1cc(C(=O)c2cc3cc(NC(=O)CI)ccc3o2)cc(OC)c1OC" : is its AC50 strictly below 7 µM? Yes

Consider the compound "COc1ccc2c(NC(=O)CI)c(C(=O)c3cc(OC)c(OC)c(OC)c3)oc2c1" . Is its AC50 strictly less than 7 µM? Yes

Hi there! Is AC50 for "COc1cc(C(=O)c2cc3cc(NC(=O)CI)ccc3s2)cc(OC)c1OC" below 7 µM, do you know? Yes

Is AC50 of "COc1cc(C(=O)c2c(NC(=O)CI)c3ccccc3n2C)cc(OC)c1OC" strictly below 7 µM? No

In plain terms, does "COc1ccc2oc(C(=O)c3cc(OC)c(OC)c(OC)c3)c(NC(=O)CI)c2c1" come in under 7 µM for AC50? No

Item "COc1cc(C(=O)c2oc3ccc(NC(=O)CI)cc3c2C)cc(OC)c1OC" : AC50 beneath 7 µM, strictly? No

Hello, I'm reviewing records and need to know if AC50 of "COc1cc(C(=O)c2oc3ccccc3c2NC(=O)CI)cc(OC)c1OC" is below 7 µM. Could you check? Yes

Find out if reported AC50 for "COc1cc(C(=O)c2oc3c(OC)cccc3c2NC(=O)CI)cc(OC)c1OC" is less than 7 µM No

Please state whether AC50 is below 7 µM for "COc1ccc(C(=O)c2oc3ccccc3c2NC(=O)CI)cc1OC" No

Strictly below 7 µM in AC50? "COc1cc(C(=O)c2sc3cc(C)ccc3c2NC(=O)CI)cc(OC)c1OC" Yes

Item "COc1cc(C(=O)c2cc3cccc(NC(=O)CI)c3o2)cc(OC)c1OC" : AC50 beneath 7 µM, strictly? No

Dear colleague, could you confirm whether AC50 of "COc1cc(C(=O)c2[nH]c3ccccc3c2NC(=O)CI)cc(OC)c1OC" falls below 7 µM? Thanks. Yes

Below 7 µM on AC50? Entry "COc1cc(C(=O)c2cc3c(NC(=O)CI)cccc3o2)cc(OC)c1OC" Yes

* * *

- Tested on: K562
- Measurement Notes: Cell cycle arrest in human K562 cells assessed as accumulation at S-phase at 2 uM for 24 hrs by propidium iodide staining based flow cytometry (reference value: 47.84%)
- Type: functional
Where Activity equals or exceeds 50%, the correct label is True; where it does not, the label is False.

Tell me whether Activity is at least 50% here: "COc1cc(C(=O)c2cc3c(NC(=O)CI)cccc3o2)cc(OC)c1OC" True

Test whether the compound "COc1cc2oc(C(=O)c3cc(OC)c(OC)c(OC)c3)cc2cc1NC(=O)CI" records Activity of 50% or higher. True

Can "COc1cc(C(=O)c2c(NC(=O)CI)c3cccc(OC)c3n2C)cc(OC)c1OC" be said to have Activity at or above 50%? False

// inclusive: Activity at least 50%? input: "COc1cc(C(=O)c2cc3cc(NC(=O)CI)ccc3s2)cc(OC)c1OC" True

Please indicate if the recorded Activity for "COc1cc(C(=O)c2cc3cc(NC(=O)CI)ccc3o2)cc(OC)c1OC" meets or exceeds 50%. True

Quick check: does "COc1cc(C(=O)c2cc3cc(NC(=O)CI)cc(OC)c3s2)cc(OC)c1OC" have Activity greater than or equal to 50%? False

* * *

- Test system: K562
- Measurement Notes: Cell cycle arrest in human K562 cells assessed as accumulation at G1 phase at 2 uM for 24 hrs by propidium iodide staining based flow cytometry (reference value: 39.27%)
- Assay type: functional
Mark each entry Condition met if its Activity sits below 40%, and Condition not met for all others.

Regarding "COc1cc(C(=O)c2cc3cc(NC(=O)CI)cc(OC)c3s2)cc(OC)c1OC" , kindly confirm whether its Activity is beneath 40%. Condition met

Item "COc1cc2oc(C(=O)c3cc(OC)c(OC)c(OC)c3)cc2cc1NC(=O)CI" : Activity beneath 40%, strictly? Condition not met

Is Activity of "COc1cc(C(=O)c2cc3cc(NC(=O)CI)ccc3s2)cc(OC)c1OC" strictly below 40%? Condition met

Check if Activity falls below 40% for "COc1cc(C(=O)c2c(NC(=O)CI)c3cccc(OC)c3n2C)cc(OC)c1OC" . Condition not met

Take the compound "COc1cc(C(=O)c2cc3c(NC(=O)CI)cccc3o2)cc(OC)c1OC" and say whether its Activity is less than 40%. Condition met

* * *

- Experimental System: Signal transducer and activator of transcription 5A (Homo sapiens)
- Sequence (whole entry): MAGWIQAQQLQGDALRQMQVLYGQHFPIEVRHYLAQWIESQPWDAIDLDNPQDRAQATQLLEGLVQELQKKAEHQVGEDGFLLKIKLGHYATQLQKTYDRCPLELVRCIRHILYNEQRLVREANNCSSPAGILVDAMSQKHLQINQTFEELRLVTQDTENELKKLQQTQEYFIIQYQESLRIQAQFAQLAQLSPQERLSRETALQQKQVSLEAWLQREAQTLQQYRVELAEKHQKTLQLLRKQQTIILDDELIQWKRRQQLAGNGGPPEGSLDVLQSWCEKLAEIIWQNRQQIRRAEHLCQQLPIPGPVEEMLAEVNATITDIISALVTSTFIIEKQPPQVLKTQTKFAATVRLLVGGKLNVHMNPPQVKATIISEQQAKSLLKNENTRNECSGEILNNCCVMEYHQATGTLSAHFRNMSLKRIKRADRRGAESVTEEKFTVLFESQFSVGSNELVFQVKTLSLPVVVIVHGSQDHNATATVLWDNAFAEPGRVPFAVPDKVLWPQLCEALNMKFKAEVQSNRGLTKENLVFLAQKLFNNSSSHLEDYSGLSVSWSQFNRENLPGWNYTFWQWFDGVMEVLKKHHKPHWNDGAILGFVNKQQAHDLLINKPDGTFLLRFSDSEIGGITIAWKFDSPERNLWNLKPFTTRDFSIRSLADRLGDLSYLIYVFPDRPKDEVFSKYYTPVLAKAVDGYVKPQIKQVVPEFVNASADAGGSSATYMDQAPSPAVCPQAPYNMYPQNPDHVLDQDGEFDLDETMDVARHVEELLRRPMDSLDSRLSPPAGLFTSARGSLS
- Measurement Notes: Inhibition of STAT5 phosphorylation in human K562 cells at 3 uM after 24 hrs by flow cytometry (reference value: 315.56)
- Assay type: cell-based
Quantity: Flu intensity
Write the number on its own, no unit after it.

Using the record for "COc1cc(C(=O)c2[nH]c3ccccc3c2NC(=O)CI)cc(OC)c1OC" , report its Flu intensity. 222

# lookup: Flu intensity of "COc1cc(C(=O)c2sc3cc(C)ccc3c2NC(=O)CI)cc(OC)c1OC" 200

Reported Flu intensity, compound "COc1cc(C(=O)c2cc3ccc(NC(=O)CI)cc3o2)cc(OC)c1OC" : ____ 289

Flu intensity for "COc1cc(C(=O)c2oc3ccccc3c2NC(=O)CI)cc(OC)c1OC" ? 98.3
